Data credit: paper PMC7954794

B1: S. cerevisiae Abp1 (full length; SH3 domain 535-592 mutated) / Hua2 (parent)
chain 1: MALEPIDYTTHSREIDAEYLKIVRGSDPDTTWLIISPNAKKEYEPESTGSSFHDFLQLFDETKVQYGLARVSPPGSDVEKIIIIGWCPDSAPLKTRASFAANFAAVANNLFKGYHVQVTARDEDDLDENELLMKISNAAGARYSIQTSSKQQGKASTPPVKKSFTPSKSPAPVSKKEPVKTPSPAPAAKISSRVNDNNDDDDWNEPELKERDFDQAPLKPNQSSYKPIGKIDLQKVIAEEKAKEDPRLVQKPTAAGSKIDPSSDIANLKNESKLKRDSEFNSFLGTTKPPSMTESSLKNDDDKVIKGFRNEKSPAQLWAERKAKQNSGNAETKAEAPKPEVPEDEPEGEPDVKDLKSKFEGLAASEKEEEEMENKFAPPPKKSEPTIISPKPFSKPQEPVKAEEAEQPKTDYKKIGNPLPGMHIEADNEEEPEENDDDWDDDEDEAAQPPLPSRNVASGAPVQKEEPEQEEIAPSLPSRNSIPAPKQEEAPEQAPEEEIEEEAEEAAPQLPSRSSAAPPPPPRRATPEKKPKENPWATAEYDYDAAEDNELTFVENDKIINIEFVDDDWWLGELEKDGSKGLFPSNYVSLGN
chain 2: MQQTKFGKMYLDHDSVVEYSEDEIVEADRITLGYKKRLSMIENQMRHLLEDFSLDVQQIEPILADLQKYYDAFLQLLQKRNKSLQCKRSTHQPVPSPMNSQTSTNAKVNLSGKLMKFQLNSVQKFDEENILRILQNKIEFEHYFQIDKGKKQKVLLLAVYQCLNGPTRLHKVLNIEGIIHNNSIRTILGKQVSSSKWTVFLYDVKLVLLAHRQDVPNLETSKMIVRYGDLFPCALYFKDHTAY

- Variants of: B1
- measurement-notes: DHFR protein-fragment complementation in yeast (Abp1-DHFR F[1,2] x partner-DHFR F[3]), deep mutational scanning, second methotrexate selection vs reference
- measurement-parameters: with Hua2; S. cerevisiae, DHFR-PCA selection in liquid with methotrexate at 30 C, two 72 h selections (the score uses the second); reference = the pre-selection culture; value at the no-binding floor (a bound); scale: DMS score: mean over two replicates of log2(f_test/f_ref + 0.5)/ln 2, minus the synonymous-codon median
Each item that follows carries a reported screen value.
recorded-endpoint: screen value

> print(dat)
      mutation.id  value.comparator  meas.value
 1  chain 1 E547R                 =       -3.04
 2  chain 1 D568I                 <       -3.06
 3  chain 1 D566F                 =       -2.99
 4  chain 1 D568Q                 =       -3.01
 5  chain 1 D567R                 <       -3.06
 6  chain 1 D566S                 <       -3.06
 7  chain 1 D567P                 <       -3.06
 8  chain 1 D566C                 <       -3.06
 9  chain 1 S585Q                 <       -3.06
10  chain 1 D567I                 <       -3.06
11  chain 1 N586R                 =       -2.99
12  chain 1 Y541R                 =       -3.01
13  chain 1 D568M                 <       -3.06
14  chain 1 W569K                 =       -3.02
15  chain 1 D566R                 =       -3.03
16  chain 1 D567T                 =          -3
17  chain 1 D568R                 <       -3.06
18  chain 1 D567C                 <       -3.06
19  chain 1 D567S                 =       -3.02
20  chain 1 D568K                 <       -3.06
21  chain 1 D567K                 =       -3.03
22  chain 1 W569M                 =       -2.99
23  chain 1 D568L                 <       -3.06
